# Tested on: murine colon adenocarcinoma cell line CT26
# TEST_METHOD_NOTES: In vitro cytotoxicity
# Assay type: cell-based
# EXPERIMENTAL_CONDITIONS: Mus musculus, CT26, 48 h
Entries annotated with measured IC50
Give a bare numeral; the unit µM is implied.

COMPOUND	IC50 [µM]
CCc1c2c(nc3ccc(OC(=O)N4CCC(N5CCCCC5)CC4)cc13)-c1cc3c(c(=O)n1C2)COC(=O)[C@]3(O)CC [CPT-11, irinotecan, reference compound]	46.7

Query: Bench note: what IC50 did CCc1c2c(nc3ccc(O)cc13)-c1cc3c(c(=O)n1C2)COC(=O)[C@]3(O)CC [SN38, 7-Ethyl-10-hydroxycamptothecin, reference compound] show?
Result: 0.0204
